TEST TARGET: T1, His-tagged P3028 (human, not fully specified)
T1 construct: the tag is put first after 'PGE73=His-tag-P3028'; also called PGE73; not shown: His-tag
T1 peptide: {His‑tag}-VFDEFKPLVEEPQNLIK
MEASUREMENT DESCRIPTION: chip ELISA
No end group written: not given here.
So basically, if ELISA signal comes in under 300 it's Fulfilled, and if it's 300 or more it's Not fulfilled.

{"columns": ["BINDER", "CAT"],
 "data": [
  ["KKLDTFFVVLSLFTER [P28R K9V]", "Fulfilled"],
  ["KKLDTFNVKLSLFTER [P28R F7N]", "Not fulfilled"],
  ["KKLDTFFVKRSLFTER [P28R L10R]", "Not fulfilled"],
  ["KKLDTFFVELSLFTER [P28R K9E]", "Fulfilled"],
  ["KKLDKFFVKLSLFTER [P28R T5K]", "Fulfilled"]
]}
